biological target: native human TRPA1 receptors (Homo sapiens, UniProt O75762); construct: stably expressing native human TRPA1 receptors were used; endogenous in cells; host or cells: A549 human lung adenocarcinoma epithelial cell line; assay: PF-4840154 (1 μM)-induced Ca2+ fluorescence measurements in A549 cell line; type: cell-based; settings: against PF-4840154 (1 μM), A549 cells; cells printed in μM
Sequence (O75762 whole entry): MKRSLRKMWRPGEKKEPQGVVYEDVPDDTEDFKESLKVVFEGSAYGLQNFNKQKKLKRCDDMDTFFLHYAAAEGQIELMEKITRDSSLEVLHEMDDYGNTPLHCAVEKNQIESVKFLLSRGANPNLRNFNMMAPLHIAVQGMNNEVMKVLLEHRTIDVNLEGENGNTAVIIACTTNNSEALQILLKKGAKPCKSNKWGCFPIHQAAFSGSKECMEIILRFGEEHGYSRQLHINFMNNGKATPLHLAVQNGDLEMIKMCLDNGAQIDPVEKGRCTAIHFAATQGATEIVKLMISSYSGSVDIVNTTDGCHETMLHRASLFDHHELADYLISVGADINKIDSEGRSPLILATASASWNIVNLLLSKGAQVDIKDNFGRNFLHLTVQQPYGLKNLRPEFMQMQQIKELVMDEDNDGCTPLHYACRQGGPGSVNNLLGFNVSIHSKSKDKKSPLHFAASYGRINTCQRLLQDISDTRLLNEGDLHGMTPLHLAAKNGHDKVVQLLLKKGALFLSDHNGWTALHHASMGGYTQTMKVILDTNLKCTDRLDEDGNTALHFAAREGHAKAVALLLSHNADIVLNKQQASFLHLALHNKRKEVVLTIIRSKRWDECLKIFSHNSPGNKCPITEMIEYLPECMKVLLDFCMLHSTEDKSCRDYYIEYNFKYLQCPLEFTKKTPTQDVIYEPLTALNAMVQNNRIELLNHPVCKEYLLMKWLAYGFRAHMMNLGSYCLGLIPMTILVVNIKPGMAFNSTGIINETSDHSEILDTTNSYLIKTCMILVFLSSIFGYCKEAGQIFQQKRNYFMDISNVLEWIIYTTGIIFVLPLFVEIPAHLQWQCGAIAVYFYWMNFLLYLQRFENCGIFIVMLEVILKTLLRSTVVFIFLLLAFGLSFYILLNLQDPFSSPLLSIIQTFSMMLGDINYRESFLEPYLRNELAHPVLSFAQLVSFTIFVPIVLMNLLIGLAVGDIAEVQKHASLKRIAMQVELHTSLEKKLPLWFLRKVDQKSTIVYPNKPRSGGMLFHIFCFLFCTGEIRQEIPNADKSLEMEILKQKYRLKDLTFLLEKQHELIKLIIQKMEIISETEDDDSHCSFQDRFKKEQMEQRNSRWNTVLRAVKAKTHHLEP
result-type: IC50

Examples with answers:
Give the measured IC50 for "O=C(NCc1cc(-c2ccc(OC(F)(F)F)cc2)nc(N2CCCC2)c1)C1(NS(=O)(=O)c2ccc(F)cc2)CC1"
> 2 µM

Give the measured IC50 for "O=C(NCc1cc(-c2ccc(C(F)(F)F)cc2)nc(N2CCCC2)c1)C1(NS(=O)(=O)c2ccc(F)cc2)CC1"
> 4 µM

Give the measured IC50 for "CCN(C1(C(=O)NCc2cc(-c3ccc(C(F)(F)F)cc3)nc(N3CCN(C4CCCCC4)CC3)c2)CC1)S(=O)(=O)c1ccc(F)cc1"
1.5 µM

Would you kindly look at the next entry?
Give the measured IC50 for "C=C(C(=O)NCc1cc[n+]([O-])c(-c2ccc(C(F)(F)F)cc2)c1)N(CC)S(=O)(=O)c1ccc(F)cc1"
> 10 µM

* * *

target: native human TRPA1 receptors (Homo sapiens); construct: stably expressing native human TRPA1 receptors were used; endogenous in cells; host or cells: A549 human lung adenocarcinoma epithelial cell line; experiment: PF-4840154 (1 μM)-induced Ca2+ fluorescence measurements in A549 cell line; format: cell-based; settings: 10 μM compound against 1 μM PF-4840154, A549 cells
result-type: inhibition at 10 µM
Remember to follow the number with its unit.

State measured inhibition at 10 µM of the molecule C=C(C(=O)NCc1cc(-c2ccc(C(F)(F)F)cc2)nc(N2CCCC2)c1)N(CC)S(=O)(=O)c1ccc(Cl)cc1 [Example 14] with native human TRPA1 receptors (Homo sapiens).
100%

State measured inhibition at 10 µM of the molecule C=C(C(=O)NCc1cccc(-c2ccc(OC(F)(F)F)cc2)c1)N(CC)S(=O)(=O)c1ccc(Cl)s1 [Example 55] with native human TRPA1 receptors (Homo sapiens).
100%

State measured inhibition at 10 µM of the molecule CCN(C1(C(=O)NCc2cc(-c3ccc(C(F)(F)F)cc3)nc(N3CCN(CC4CC4)CC3)c2)CC1)S(=O)(=O)c1ccc(Cl)s1 [Example 65] with native human TRPA1 receptors (Homo sapiens).
100%

State measured inhibition at 10 µM of the molecule CCN(C1(C(=O)NCc2cc(-c3ccc(OC(F)(F)F)cc3)nc(N3CCCC3)c2)CC1)S(=O)(=O)c1ccc(F)cc1 [Example 61] with native human TRPA1 receptors (Homo sapiens).
95%

State measured inhibition at 10 µM of the molecule C/C=C(/C(=O)NCc1ccnc(-c2ccc(OC(F)(F)F)cc2)c1)N(CC)S(=O)(=O)c1ccc(F)cc1 [Example 22] with native human TRPA1 receptors (Homo sapiens).
97%

Next:
State measured inhibition at 10 µM of the molecule CCN(C1(C(=O)NCc2ccnc(-c3ccc(OC(F)(F)F)cc3)c2)CC1)S(=O)(=O)c1ccc(F)cc1 [Example 26] with native human TRPA1 receptors (Homo sapiens).
100%

State measured inhibition at 10 µM of the molecule CCN(C1(C(=O)NCc2cccc(-c3ccc(C(F)(F)F)cc3)c2)CC1)S(=O)(=O)c1ccc(F)cc1 [Example 29] with native human TRPA1 receptors (Homo sapiens).
100%

State measured inhibition at 10 µM of the molecule C=C(C(=O)NCc1cc(-c2ccc(OC(F)(F)F)cc2)nc(N2CCCC2)c1)N(CC)S(=O)(=O)c1ccc(F)cc1 [Example 18] with native human TRPA1 receptors (Homo sapiens).
100%

State measured inhibition at 10 µM of the molecule C=C(C(=O)NCc1ccnc(-c2ccc(C(F)(F)F)cc2)c1)N(CC)S(=O)(=O)c1ccc(F)cc1 [Example 1] with native human TRPA1 receptors (Homo sapiens).
100%

State measured inhibition at 10 µM of the molecule C=C(C(=O)NCc1ccnc(-c2ccc(C(F)(F)F)cc2)c1)N(CC)S(=O)(=O)c1cccc(F)c1 [Example 36] with native human TRPA1 receptors (Homo sapiens).
100%

State measured inhibition at 10 µM of the molecule C=C(C(=O)NCc1ccnc(-c2ccc(OC(F)(F)F)cc2)c1)N(CC)S(=O)(=O)c1ccc(Cl)s1 [Example 7] with native human TRPA1 receptors (Homo sapiens).
100%

State measured inhibition at 10 µM of the molecule CCN(C1(C(=O)NCc2cc(OC)nc(-c3ccc(C(F)(F)F)cc3)c2)CC1)S(=O)(=O)c1ccc(Cl)s1 [Example 50] with native human TRPA1 receptors (Homo sapiens).
100%

State measured inhibition at 10 µM of the molecule C=C(C(=O)NCc1cc(-c2ccc(C(F)(F)F)cc2)nc(N(C)C)c1)N(CC)S(=O)(=O)c1ccc(Cl)s1 [Example 39] with native human TRPA1 receptors (Homo sapiens).
100%

State measured inhibition at 10 µM of the molecule C=C(C(=O)NCc1cccc(-c2ccc(C(F)(F)F)cc2)c1)N(CC)S(=O)(=O)c1ccc(F)cc1 [Example 8] with native human TRPA1 receptors (Homo sapiens).
100%

Numbers sourced from patent US9409864B2.
